- Test system: BaF3
- protocol description: Growth inhibition of mouse BaF3 cells over expressing wild type RET incubated for 3 days by MTT assay
- Assay type: functional
- conditions used: BaF3, 72 h, time 3 day
What GI50 was measured for each of the following?

input: Give recorded GI50. O=C(Nc1ccc(Nc2ncnc3c2OCCN3)cc1)Nc1ccc(C(F)(F)F)cc1
output: 4.4 µM

input: Give recorded GI50. CN1CCCOc2c(Nc3ccc(NC(=O)Nc4cc(C(C)(C)C)on4)cc3)ncnc21
output: 3.89 µM

input: Give recorded GI50. CC(C)(C)c1cc(NC(=O)Nc2ccc(Nc3ncnc4c3OCCN4)c(O)c2)no1
output: 3.37 µM

input: Give recorded GI50. CC(C)N1CCOc2c(Nc3ccc(NC(=O)Nc4cc(C(C)(C)C)on4)cc3)ncnc21
output: 5.16 µM

input: Give recorded GI50. O=C(Nc1ccc(Nc2ncnc3c2OCCN3)cc1)Nc1ccc(Cl)c(C(F)(F)F)c1
output: 3.07 µM

input: Give recorded GI50. CC(C)(C)c1cc(NC(=O)Nc2cccc(Nc3ncnc4c3OCCN4)c2)no1
output: > 10 µM

input: Give recorded GI50. Cc1cc(NC(=O)Nc2cc(C(C)(C)C)on2)ccc1Nc1ncnc2c1OCCN2
output: 0.73 µM

input: Give recorded GI50. COc1cccc(NC(=O)Nc2ccc(Nc3ncnc4c3OCCN4)cc2)c1
output: > 10 µM

input: Give recorded GI50. CC(C)(C)c1cc(NC(=O)Nc2ccc(Nc3ncnc4c3OCCN4)cc2)no1
output: 0.15 µM

input: Give recorded GI50. O=C(Nc1ccc(Nc2ncnc3c2OCCN3)cc1)Nc1cccc2ccccc12
output: > 10 µM

input: Give recorded GI50. COc1cc2nccc(Oc3ccc(NC(=O)C4(C(=O)Nc5ccc(F)cc5)CC4)cc3)c2cc1OC [CABOZANTINIB]
output: 0.15 µM

input: Give recorded GI50. O=C(Nc1ccc(Nc2ncnc3c2OCCN3)cc1)Nc1cc(Cl)cc(Cl)c1
output: > 10 µM

input: Give recorded GI50. COc1cc(NC(=O)Nc2cc(C(C)(C)C)on2)ccc1Nc1ncnc2c1OCCN2
output: 4.7 µM

input: Give recorded GI50. O=C(Nc1ccc(Nc2ncnc3c2OCCN3)cc1)Nc1cccs1
output: > 10 µM

input: Give recorded GI50. CNC(=O)c1cc(Oc2ccc(NC(=O)Nc3ccc(Cl)c(C(F)(F)F)c3)cc2)ccn1 [SORAFENIB]
output: 0.23 µM

input: Give recorded GI50. O=C(Nc1ccc(Nc2ncnc3c2OCCN3)cc1)Nc1cccc(-c2ccccc2)c1
output: > 10 µM

input: Give recorded GI50. Cc1cc(C)cc(NC(=O)Nc2ccc(Nc3ncnc4c3OCCN4)cc2)c1
output: > 10 µM

input: Give recorded GI50. COc1ccc(NC(=O)Nc2ccc(Nc3ncnc4c3OCCN4)cc2)cc1
output: > 10 µM

input: Give recorded GI50. CC(C)(C)c1cc(NC(=O)Nc2ccc(Nc3ncnc4c3OCCN4)cc2F)no1
output: 0.09 µM

input: Give recorded GI50. CC(C)(C)c1cc(NC(=O)Nc2ccc(Nc3ncnc4c3OCCN4)nc2)no1
output: 4.12 µM

input: Give recorded GI50. O=C(Nc1ccc(Cl)cc1)Nc1ccc(Nc2ncnc3c2OCCN3)cc1
output: > 10 µM

input: Give recorded GI50. Cc1ccc(F)c(NC(=O)Nc2ccc(Nc3ncnc4c3OCCN4)cc2)c1
output: > 10 µM

input: Give recorded GI50. Cc1nc(Nc2ncnc3c2OCCN3)ccc1NC(=O)Nc1cc(C(C)(C)C)on1
output: > 10 µM

input: Give recorded GI50. CC(C)(C)c1cc(NC(=O)Nc2ccc(Nc3ncnc4c3OCCN4)c(F)c2)no1
output: 0.33 µM

input: Give recorded GI50. O=C(Nc1ccc(Br)cc1)Nc1ccc(Nc2ncnc3c2OCCN3)cc1
output: > 10 µM

input: Give recorded GI50. CN1CCOc2c(Nc3ccc(NC(=O)Nc4cc(C(C)(C)C)on4)cc3)ncnc21
output: 8.06 µM

input: Give recorded GI50. CC(C)(C)c1csc(NC(=O)Nc2ccc(Nc3ncnc4c3OCCN4)cc2)n1
output: > 10 µM

input: Give recorded GI50. COc1cc2/c(=N/c3ccc(Br)cc3F)nc[nH]c2cc1OCC1CCN(C)CC1 [VANDETANIB]
output: 0.46 µM

input: Give recorded GI50. CC(C)(C)c1cc(NC(=O)Nc2ccc(Nc3ncnc4c3OCCCN4)cc2)no1
output: 0.1 µM
